// provenance: PubChem BioAssay

test: circadian clock period modulators, cell-based, LOPAC library, luminescence reporter (AID 2774); settings: circadian reporter cells, at 7 µM, actives lie on both sides;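 note: values are relative to mean of DMSO wells on each plate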
Calls of active or inactive are those of the source. The rule behind the calls is not given here.
Task for the reader: assign each of the following compounds its reported period change.

Reported period change of CC(CN1c2ccccc2Sc2ccccc21)N(C)C (configuration not stated) : 0.14 h (inactive)

Reported period change of CN(C)CCOC(c1ccccc1)c1ccccc1 : -0.01 h (inactive)

Reported period change of C[C@]12CCC(=O)C=C1CC[C@@H]1[C@@H]2[C@@H](O)C[C@@]2(C)[C@H]1CC[C@]2(O)C(=O)COC(=O)CCC(=O)O : -0.475 h (inactive)

Reported period change of CC(C)(C)NCC(O)c1cc(O)cc(O)c1 (configuration not stated) : 0.03 h (inactive)

Reported period change of CN1CCN(CCCN2c3ccccc3Sc3ccc(C(F)(F)F)cc32)CC1 : 0.025 h (inactive)

Reported period change of Cn1c(=O)c2[nH]cnc2n(C)c1=O : 0.14 h (inactive)

Reported period change of N[C@@H]1CONC1=O : 0.11 h (inactive)

Reported period change of CC1=C(/C=C/C(C)=C/C=C/C(C)=C/C(=O)O)C(C)(C)CCC1 : 0.355 h (inactive)

Reported period change of CN1C(C(=O)Nc2ccccn2)=C(O)c2ccccc2S1(=O)=O : -0.07 h (inactive)

Reported period change of CN(C)CCOC(C)(c1ccccc1)c1ccccn1 (configuration not stated) : 0.205 h (inactive)

Reported period change of OC(CCN1CCCCC1)(c1ccccc1)C1CCCCC1 (configuration not stated) : 0 h (inactive)

Reported period change of c1ccc([C@H]2CN3CCSC3=N2)cc1 : -0.17 h (inactive)

---

assay: kinase inhibitors against Plasmodium liver-stage infection, cell-based, known kinase inhibitor set, luminescence, hepatoma host viability (AID 624392); conditions: Plasmodium liver stage in hepatoma cells, luciferase luminescence, concentration not given here; hits give low values;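 note: infected cells incubated roughly two days before readout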
ASSAY METRIC: parasite % of control (%)
Lab book: enter the figure in %, no units written.

Reported parasite % of control of Cc1[nH]n(-c2ccccc2)c(=O)c1C(=O)c1ccccc1 : 53.4

Reported parasite % of control of CCn1c(-c2nonc2N)nc2cnc(Oc3cccc(NC(=O)c4ccc(OCCN5CCOCC5)cc4)c3)cc21 : 42.7

Reported parasite % of control of COc1cc(/C=N/Nc2ncnc3c2cnn3-c2ccccc2)ccc1O : 61

Reported parasite % of control of CS(=O)(=O)N1CCC(n2c(=O)c(Oc3ccc(F)cc3F)cc3cnc(NC4CCOCC4)nc32)CC1 : 64.5

Reported parasite % of control of Cn1cc(C2=C(c3cn(C)c4ccc(OCc5ccccc5)cc34)C(=O)NC2=O)c2ccccc21 : 46.6

Reported parasite % of control of Cn1c(-c2nonc2N)nc2cnccc21 : 106

Reported parasite % of control of COc1ccccc1C1=C(Nc2ccccc2)C(=O)NC1=O : 110

Reported parasite % of control of CN(c1ccc(NC(=O)Nc2ccc(OC(F)(F)F)cc2)cc1)c1ccnc(Nc2cccc(S(N)(=O)=O)c2)n1 : 13.1

Reported parasite % of control of O=C1NC(=NCCc2ccccn2)SC1=Cc1ccc2ncccc2c1 : 32.1

Reported parasite % of control of CCOc1ccc2c(-c3ccnc(Nc4cccc(C(F)(F)F)c4)n3)cnn2n1 : 174
